Cited source: patent US20170189529A1

Biological target: recombinant HA of influenza B virus B/Brisbane/08 (Victoria clade) (influenza B virus B/Brisbane/08 …)
Assay: recombinant HA ELISA (AttoPhos fluorescence, mean of triplicates)
MEASURED PROPERTY: fold reactivity over background (fold over background)
Give the number; fold over background is assumed, so skip it.

Example binders with recorded fold reactivity over background:
TRL854 (antibody, V domains shown) VH: QVQLVESGAEVKKPGASVRVSCKGSGYTFTAYHMHWVRQAPGQGFEWVGWINPNSGATYYTSTFEGRVTMTRDTSITTAYMELSSLRSDDTAVYYCATDIVVERDASLGGFNSYGMDVWGQGTTVTVSS VL: DIEMTQSPLSLPVTPGEPASISCRSSQSLLHSNGYNHLAWYLQKPGRSPHLLIYLASTRASGVPDRFSGSGSGTDFTLKISRVEAEDVGIYYCMQSLQTSITFGQGTRLEIKR
25.6
TRL856 (antibody, V domains shown) VH: QVQLVESGGGLVQPGGSLRLSCAASGFTFSDYWMVWVRQAPGKGLVWVSRISSDGSTTSYADSVKGPFTISRDNAKNTLYLQMNSLRAEDTAVYYCARVATPYYYESGFDYWGQGALVTVSS VL: DIVLTQSPSVSVAPGQTARITCGGNDIGSKSVHWYQQKPGQAPVLVVFDDRDRPSGIPERFSGSNSGNTATLTISRVEAGDEADYYCQVWDITSDLVVFGGGTKLTVVG
24.1
TRL846 (antibody, V domains shown) VH: QVQLVESGGGLVQPGGSLRLSCTVSGFTFNSYAMNWVRQAPGKGLEWVSGIRGSGENTYYAETVKGRFTISRDNSKNTLYLEMNSLRAEDTAVYYCARKWGRMTVFGVATDQLYYFDYWGQGTLVTVSS VL: DITLTQSPATLSVSPGERATLSCRASQSVSSNLAWYQQKPGQAPRLLIYGASNRATDIPARFSGSGSGTEFTLTISSLQSEDFAVYYCQQFNDWPFLTFGGGTKVEIKR
25.6
TRL847 (antibody, V domains shown) VH: QVQLVESGGGLVQPGGSLRLSCVASGFTFSRFSMNWVRQAPGMGLEWVSYISDTGRTIYYADSVKGRFTISRDNDKNTLYLQMKSLRDEDSAFYYCARDPDTPFVRAFDSWGQGVLVTVSS VL: DIVMTQSPSFLSASVGDRVTITCRTSQVISSYLAWYQQRPGKAPKLLIYAASTLQSGVPSRFSGSGSGTRFSLTISNLQPEDFATYFCQQLTTYPPITFGQGTRLEIKR
25.6

Kindly review the next binder as well.
The recorded fold reactivity over background for entry TRL813 (antibody, V domains shown) VH: QVQLVESGGGLVQPGGSLRLSCAASGFIFGDFAIHWVRQASGKGLEWVARIRSGLNRFETAYAASVEGRLTISRDDSKSMAYLQMNNVKAEDTAVYLCTYLVGAVGFQHWGQGTLVTVSS VL: DIVMTQSPSTLSASVGDRVTITCRASQTIYRWLAWYQQKPGKAPKVLIYKASTLESGVPSRFSGSGSGTEFTLAISSLQPDDFATYYCQQYNSFPYRFGQGTKVEIKR equals 25.6
